Tested on: panel of 55 breast cancer cell lines
Assay: Cell growth inhibition assay (Cell Titer Glo, 72 h, 9 doses; GI50, TGI, LC50)
Assay type: cell-based, human
Settings: Homo sapiens, MDA-MB-468, cell line MDAMB468; read-out: GI50 (converted)
METRIC: GI50 (µM)
Answer with a number only, understood to be in µM.

COc1cccc2c1C(=O)c1c(O)c3c(c(O)c1C2=O)C[C@@](O)(C(=O)CO)C[C@@H]3O[C@H]1C[C@H](N)[C@@H](O)[C@H](C)O1 [Epirubicin]    0.692
Cn1c(=O)n(-c2ccc(C(C)(C)C#N)cc2)c2c3cc(-c4cnc5ccccc5c4)ccc3ncc21    33.1
COc1cc([C@@H]2c3cc4c(cc3[C@@H](O[C@@H]3O[C@@H]5CO[C@@H](C)O[C@H]5[C@H](O)[C@H]3O)[C@H]3COC(=O)[C@H]23)OCO4)cc(OC)c1O [Etoposide]    2.57
Cc1[nH]c2ccccc2c1CCNCc1ccc(/C=C/C(=O)NO)cc1    0.234
C#Cc1cccc(Nc2ncnc3cc(OCCOC)c(OCCOC)cc23)c1    21.4

# ---- query compound ----
The value of GI50 measured for the compound "CC[C@@]1(O)C(=O)OCc2c1cc1n(c2=O)Cc2cc3c(CN(C)C)c(O)ccc3nc2-1" turned out to be 0.0457
